Target: HLA-B*18:01
Experiment: IEDB peptide-MHC binding, purified MHC/competitive/radioactivity; filed as Kd, often an IC50 or EC50 that approximates it; bounds were set here for any values at or beyond the usual limits of such assays
Conditions: source organism: Mammarenavirus juninense
Experimental readout: Kd

Output Kd of `DELGNILSVY`
8.98 nM

----------
Target: HLA-B*58:01
Assay: IEDB peptide-MHC binding, purified MHC/direct/fluorescence; filed as Kd, often an IC50 or EC50 that approximates it; bounds were set here for any values at or beyond the usual limits of such assays
Conditions: source organism: West Nile virus
pKd: −log10 of the molar value.
Experimental readout: pKd

Give a short answer stating reported pKd for `VHREWFMDL` .
≤ 4.70
